ASSAY_EXPLANATION: in vivo
CONDITIONS: female, beagle, dog, iv, 1.5 mg/kg
REPORTED_ENDPOINT: half-life (min)
Output spec: scalar in min, unitless text.

Entry CCCCN1CCCCC1C(=O)Nc1c(C)cccc1C (stereo not shown) [free bupivacaine, bupivacaine] ; half-life = 28.4

###

ASSAY_EXPLANATION: in vivo
CONDITIONS: female, beagle, dog, iv, 1.5 mg/kg
REPORTED_ENDPOINT: AUC(0-t) (ng·h/mL)
Output spec: scalar in ng·h/mL, unitless text.

Entry CCCCN1CCCCC1C(=O)Nc1c(C)cccc1C (stereo not shown) [free bupivacaine, bupivacaine] ; AUC(0-t) = 1110
